# credit: PubChem BioAssay (NCI)

Test: NCI Yeast Anticancer Drug Screen. Data for the cln2 rad14 strain (AID 165);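 also: 0% = growth equal to vehicle treated cultures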
Conditions: S. cerevisiae cln2 rad14 strain, at 50.0 µM, active compounds read high
Compounds without any hit were thinned out: in the full panel of roughly 79,000, 15% have a hit.
Think of -10% as a floor: if growth inhibition stands on it or above, it is rule met; beneath it, rule not met.

> print(dat)
                                    compound   class.label
 1                  CC(=O)OCCc1ccc2c(c1)OCO2  rule not met
 2      O=[N+]([O-])c1ccc(SC2=NCCCN2)c(Cl)c1      rule met
 3  CC(=O)OCC1OC(n2c(-c3ccc(C)cc3)cc(-c3ccccc3)c(C#N)c2=S)C(OC(C)=O)C(OC(C)=O)C1OC(C)=O (stereo unspecified)      rule met
 4  CCCC1CC(=O)NC1C(=O)O (stereo unspecified)  rule not met
 5    CC(C)N1C(=O)NC(=O)C12CCN(Cc1ccccc1)CC2      rule met
 6  CC(C)C(NC(=O)CI)C(=O)Nc1ccc(C(=O)O)c(O)c1 (stereo unspecified)  rule not met
 7  CCOC(=O)C1=C(Nc2ccc(Cl)c(Cl)c2)OC/C1=N\NC(=O)Cc1ccccc1  rule not met
 8  O=CC12c3ccccc3C(c3ccccc31)C1C(=O)NC(=O)C12 (stereo unspecified)      rule met
 9                 Nc1cnc(Nc2cccc3ccccc23)o1      rule met
10  CCNC(=S)OC1CCC2(C)C(=CCC3C2CCC2(C)C(C(C)CCC(CC)C(C)C)CCC32)C1 (stereo unspecified)  rule not met
11          O=C1O/C(=C/c2ccc(O)cc2)c2ccccc21  rule not met

====

Assay: NCI Yeast Anticancer Drug Screen. Data for the cln2 rad14 strain (AID 165);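 also: 0% = growth equal to vehicle treated cultures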
Settings: S. cerevisiae cln2 rad14 strain, at 50.0 µM, active compounds read high
About 79,000 compounds went through this panel and 15% of them were active in at least one assay; those are over-represented in the sample as a whole.
Think of 10% as a floor: if growth inhibition stands on it or above, it is Yes; beneath it, No.

> print(dat)
                                    molecule  class.label
 1        CCCCCCCCCCCc1cc(=O)n(-c2ccccc2)n1C          Yes
 2      O=[N+]([O-])c1ccc(Nc2ccccc2)c2nonc12          Yes
 3        N#Cc1ccccc1CC(O)(c1ccccc1)c1ccccc1          Yes
 4  O=NC1C(Cl)C2CC1C1C(Cl)C(Cl)CC21 (stereo not drawn)          Yes
 5         CCOC1(c2ccccc2)c2ccccc2Sc2ccccc21           No
 6  CN(C)Cc1cccc(C(F)(F)F)c1C(O)c1ccccc1 (stereo not drawn)           No
 7  C/C=C(/C=O)[C@@H]1CC2c3c(c4ccccc4n3[C@@H](O)C1)CCN2C (stereo partly drawn)           No
 8               CCOC(=O)c1cccc(NC(=O)CCl)c1          Yes
 9  CC(=NNC(=S)Nc1cccc(C)c1)c1cccc(C(C)=NNC(=S)Nc2cccc(C)c2)n1          Yes
10  NC1=NC=N/C(=N\c2ccccn2)C1N (stereo not drawn)           No
11  Cc1cc2c(=O)cc(-c3ccc(F)cc3)oc2c(C(=O)O)c1C          Yes
12                 CN(C)Cn1c2ccccc2c2ccccc21           No
13                  Nc1n[nH]c(=S)n1Cc1ccccc1           No
14                          CNC(=O)c1ccccc1O          Yes
15                      Cc1nc2ccc(N)cc2oc1=O           No
16           Cn1ncc2c(NCCc3ccccc3)nc(Cl)nc21          Yes
17  CCCc1[nH]nc(CCC(=O)N(Cc2ccccc2)Cc2ccccc2)c1CC           No
18                      c1ccc(CNc2ccccc2)cc1          Yes
19  O=C1NC2OCC(O)C(O1)C2O (stereo not drawn)           No
20                      CC(C)OC(=O)CC1CCCCC1           No
21  COC(=O)C(=O)c1c(C(=O)OC)nc2[nH]n(-c3ccccc3)c(=O)c2c1Cc1ccccc1           No
22     O=C(O)CCC(=O)CCC(=O)c1ccc(O)c2ncccc12          Yes
23                O=C(Cc1ccccc1)NCc1ccccc1Cl           No
24                            NNc1cccc(Cl)n1          Yes
25  COc1ccc2c(c1)c1c3c(ccc4ncn2c43)N(CCN(C)C)CCN=1           No
26  Cc1ccc(S(=O)OCC23CC4CC(CC(C4)C2)C3)cc1 (stereo not drawn)          Yes
27  COc1ccc2c(c1)C(C)(C(N)=O)CCC2 (stereo not drawn)           No
28  O=C1CSC(c2cccc([N+](=O)[O-])c2)N1c1ccc(-n2c(-c3ccccc3)nc3ccccc3c2=O)cc1 (stereo not drawn)           No
29  O=C(O)[C@@H]1CCC(=O)N1C(c1ccc2c(c1)OCO2)c1ccc2c(c1)OCO2           No
30  CC1=CC[C@@H](Br)C(C)(C)[C@]12CC[C@]1(C)O[C@@H]1C2           No
31  COc1cc(NCCCCCN2C(=O)c3ccccc3C2=O)c2ncccc2c1          Yes
32              c1ccc(NCc2nc3ccccc3[nH]2)cc1          Yes
33       Cn1nc(-c2ccccc2)c(N=[N+]=[N-])cc1=O           No
34           c1cnc(NC(Nc2cnccn2)C2CCCCC2)cn1           No
35  Cc1cc([N+](=O)[O-])c(NCCOC(=O)c2ccc([N+](=O)[O-])cc2)c([N+](=O)[O-])c1           No
36  COc1ccc(-c2cc(=O)c3cc(O)ccc3o2)c(OC)c1OC           No
37  O=C(Nc1ccc(CCc2ccc(NC(=O)C34CC5CC(CC(C5)C3)C4)cc2)cc1)C12CC3CC(CC(C3)C1)C2           No
38  O=[N+]([O-])c1ccc(C[Se]c2ncnc3c2ncn3C2OC(CO)C(O)C2O)cc1 (stereo not drawn)           No
39  Cc1nc(C)c(C(=O)NNC(=O)Cc2ccccc2)cc1C(=O)NNC(=O)Cc1ccccc1          Yes
40  COc1ccc(C2S/C(=C\c3cccc([N+](=O)[O-])c3)C(=O)N2NC(=O)Cc2ccccc2)cc1 (stereo not drawn)           No
41               Oc1ccc(Cl)cc1CC(=S)N1CCOCC1           No
42         Nc1nc(-c2ccco2)cc(-c2ccc(CO)o2)n1           No
43             CCCCI(O)OS(=O)(=O)c1ccc(C)cc1           No
44     COc1ccc2c3c([nH]c2c1)CCN(Cc1ccccc1)C3          Yes
45  CCCCCCCCCCCCCCCCOCC(COS(C)(=O)=O)OS(C)(=O)=O (stereo not drawn)          Yes
46  CC(=O)N(CCc1ccccc1)C(C)(C#N)c1ccccc1 (stereo not drawn)           No
47  CC(COCc1ccccc1)C1OC(C)(C)OC(C#N)C1C (stereo not drawn)           No

====

Assay: NCI Yeast Anticancer Drug Screen. Data for the mlh1 rad18 strain (AID 175)
Conditions: S. cerevisiae mlh1 rad18 strain growth inhibition; at 50.0 µM; active compounds read high
The panel holds about 79,000 compounds, 15% with a hit somewhere; the sample as a whole holds those more often.
Documented growth inhibition across a set of compounds
PROPERTY: growth inhibition (%)

> print(dat)
                                   compound  experimental.result
1         Cc1oc2cc(O)ccc2c(=O)c1-c1ccccc1Br                 27.4
2  COC1=CC(=O)N(C)C(O)C1(C#N)OC1OC(CO)C(O)C(O)C1O (configuration not stated)                -40.9
3                      CN(C)N=Nc1c(F)cccc1F                 0.65
4  O=NC1C2CCC(C2)C1N=O.[Co].[c-]1[c-][c-][cH-][c-]1 (configuration not stated)                 27.9
5                NNc1ccc(S(=O)(=O)C(F)F)cc1                 13.1
6                            CCCCCCC1CCCCC1                  -20
7                     Brc1ccc2oc3ccccc3c2c1                 24.8
